The values you see were collected from patent US5763442A.

Test system: P. falciparum (RB-1)
Test: Direct antimalarial activity, flow cytometry, strain RB-1
Format: cell-based, Plasmodium falciparum
Conditions: summary statement
outcomeMeasure: activity against the malaria microorganism Plasmodium falciparum

// known answers, use as guide
CC1(C)CC(N=c2cc3n(-c4cc(Cl)cc(Cl)c4)c4ccccc4nc-3cc2Nc2cc(Cl)cc(Cl)c2)CC(C)(C)N1	good activity
CC1(C)CC(N=c2cc3n(-c4cccc(Cl)c4)c4ccccc4nc-3cc2Nc2cccc(Cl)c2)CC(C)(C)N1	good activity
CC1(C)CC(N=c2cc3n(-c4ccc(Cl)c(Cl)c4)c4ccccc4nc-3cc2Nc2ccc(Cl)c(Cl)c2)CC(C)(C)N1	good activity
c1ccc(Nc2cc3nc4ccccc4n(-c4ccccc4)c-3cc2=NC2CCCCC2)cc1	good activity

Turning now to a further record.
Q) Output reported activity against the malaria microorganism Plasmodium falciparum of the compound CC(C)c1ccc(Nc2cc3nc4ccccc4n(-c4ccc(C(C)C)cc4)c-3cc2=NC2CC(C)(C)NC(C)(C)C2)cc1 on P. falciparum (RB-1).
A) good activity
